Recorded values, source patent US20260137706A1.

Subject Of Test: GST-RIPK2 fusion protein (human RIPK2, amino acids 1-310) (Homo sapiens, UniProt O43353)
Construct: made in house; host or cells: baculovirus infected Sf9 cells
Sequence (O43353 1-310): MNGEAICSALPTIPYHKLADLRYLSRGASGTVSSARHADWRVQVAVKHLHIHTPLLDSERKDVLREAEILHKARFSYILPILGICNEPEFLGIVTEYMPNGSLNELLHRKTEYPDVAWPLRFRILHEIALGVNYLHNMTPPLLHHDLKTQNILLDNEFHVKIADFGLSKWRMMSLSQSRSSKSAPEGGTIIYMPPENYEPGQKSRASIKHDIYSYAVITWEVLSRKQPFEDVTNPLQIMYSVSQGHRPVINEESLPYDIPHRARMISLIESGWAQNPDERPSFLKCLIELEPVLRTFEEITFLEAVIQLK
Measurement Protocol: RIPK2 binding competition assay (TR-FRET, Tracer 199 displacement)
Condition Parameters: 10 nM Tracer 199, 1 nM GST-RIPK2, read-out: RIPK2 IC50
Value Type: IC50

Example results:
COc1cc2ncc(-c3cc(F)c(OC)c(NS(=O)(=O)c4cnn(CCO)c4)c3)n2cc1C(F)(F)F    2.5 to 20 nM
COc1cc2ncc(-c3cc(NS(=O)(=O)C4(CO)CC4)c(OC)c(OC)c3)n2cc1S(=O)(=O)C(C)(C)C    < 1 nM
COc1cc2ncc(-c3cc(F)c(OC)c(NS(=O)(=O)c4cnn(C)c4)c3)n2cc1C1(F)CCN(C)CC1    < 1 nM
Nc1cc(-c2cnn3ccc(C(F)(F)F)cc23)cc(F)n1    > 20 nM
CC(C)(C)S(=O)(=O)c1cn2c(-c3cc4cc[nH]c4nc3F)cnc2cc1OCCO    < 1 nM

QUERY: Recorded IC50 for `C[C@H](O)COc1cn2ncc(-c3cc(F)c(N)nc3F)c2cc1S(=O)(=O)C(C)(C)C` , please?
RESULT: 1 to 2.5 nM

QUERY: Recorded IC50 for `CCCS(=O)(=O)Nc1cc(-c2cnc3cc(OC)c(S(=O)(=O)C(C)(C)CO)cn23)cc(Cl)c1OC` , please?
RESULT: < 1 nM

QUERY: Recorded IC50 for `COc1cc2nc(Cl)c(-c3ccc(N)nc3F)n2cc1S(=O)(=O)C(C)(C)C` , please?
RESULT: > 20 nM
